test system: NCI-H838; test: relative viability (nuclei count vs DMSO), 5 days (fraction); higher = more cells survive; conditions: first compound 0.0002 µM
The compounds listed here are annotated with their relative viability.
measure-name: relative viability

{"columns": ["compound", "measure-name", "obs-value"],
 "data": [
  ["CC(=O)O[C@@]12CO[C@@H]1C[C@H](O)[C@@]1(C)C(=O)[C@H](O)C3=C(C)[C@@H](OC(=O)[C@H](O)[C@@H](NC(=O)OC(C)(C)C)c4ccccc4)C[C@@](O)([C@@H](OC(=O)c4ccccc4)[C@H]21)C3(C)C [Docetaxel] + CC(=O)Nc1cccc(-n2c(=O)n(C3CC3)c(=O)c3c(Nc4ccc(I)cc4F)n(C)c(=O)c(C)c32)c1 [Trametinib] (partner 0.02 µM)", "relative viability", 0.456],
  ["CC(=O)O[C@@]12CO[C@@H]1C[C@H](O)[C@@]1(C)C(=O)[C@H](O)C3=C(C)[C@@H](OC(=O)[C@H](O)[C@@H](NC(=O)OC(C)(C)C)c4ccccc4)C[C@@](O)([C@@H](OC(=O)c4ccccc4)[C@H]21)C3(C)C [Docetaxel] + Nc1ncn([C@H]2C[C@H](O)[C@@H](CO)O2)c(=O)n1 [Decitabine] (partner 2 µM)", "relative viability", 0.446],
  ["CC(=O)O[C@@]12CO[C@@H]1C[C@H](O)[C@@]1(C)C(=O)[C@H](O)C3=C(C)[C@@H](OC(=O)[C@H](O)[C@@H](NC(=O)OC(C)(C)C)c4ccccc4)C[C@@](O)([C@@H](OC(=O)c4ccccc4)[C@H]21)C3(C)C [Docetaxel] + Cc1cc(Nc2cc(N3CCN(C)CC3)nc(Sc3ccc(NC(=O)C4CC4)cc3)n2)n[nH]1 [Tozasertib] (partner 0.1 µM)", "relative viability", 0.236]
]}

====

system: SW 1573; experiment: relative viability (nuclei count vs DMSO), 5 days (fraction); higher = more cells survive; conditions: first compound 0.8 µM
// NB: equality with 0.5 counts as false; only relative viability strictly below is true

{"columns": ["compound", "measured-target", "group-label"],
 "data": [
  ["Cc1cnc(-c2cnc(NCCNc3ccc(C#N)cn3)nc2-c2ccc(Cl)cc2Cl)[nH]1 + CC(=O)Nc1cccc(-n2c(=O)n(C3CC3)c(=O)c3c(Nc4ccc(I)cc4F)n(C)c(=O)c(C)c32)c1 [Trametinib] (partner 0.02 µM)", "SW 1573", "false"],
  ["Cc1cnc(-c2cnc(NCCNc3ccc(C#N)cn3)nc2-c2ccc(Cl)cc2Cl)[nH]1 + Nc1ncn([C@H]2C[C@H](O)[C@@H](CO)O2)c(=O)n1 [Decitabine] (partner 2 µM)", "SW 1573", "true"]
]}

====

The molecules listed here are annotated with their relative viability.
tested on: NCI-H1755; assay: relative viability (nuclei count vs DMSO), 5 days (fraction); higher = more cells survive; conditions: first compound 0.002 µM
measure-name: relative viability

{"columns": ["molecule", "obs-value"],
 "data": [
  ["CC(=O)O[C@@]12CO[C@@H]1C[C@H](O)[C@@]1(C)C(=O)[C@H](O)C3=C(C)[C@@H](OC(=O)[C@H](O)[C@@H](NC(=O)OC(C)(C)C)c4ccccc4)C[C@@](O)([C@@H](OC(=O)c4ccccc4)[C@H]21)C3(C)C [Docetaxel] + NC(=O)Nc1cc(-c2cccc(F)c2)sc1C(=O)N[C@H]1CCCNC1 [AZD7762] (partner 0.2 µM)", 0.324],
  ["CC(=O)O[C@@]12CO[C@@H]1C[C@H](O)[C@@]1(C)C(=O)[C@H](O)C3=C(C)[C@@H](OC(=O)[C@H](O)[C@@H](NC(=O)OC(C)(C)C)c4ccccc4)C[C@@](O)([C@@H](OC(=O)c4ccccc4)[C@H]21)C3(C)C [Docetaxel] + Nc1ncn([C@H]2C[C@H](O)[C@@H](CO)O2)c(=O)n1 [Decitabine] (partner 2 µM)", 0.604],
  ["CC(=O)O[C@@]12CO[C@@H]1C[C@H](O)[C@@]1(C)C(=O)[C@H](O)C3=C(C)[C@@H](OC(=O)[C@H](O)[C@@H](NC(=O)OC(C)(C)C)c4ccccc4)C[C@@](O)([C@@H](OC(=O)c4ccccc4)[C@H]21)C3(C)C [Docetaxel] + C[C@]1(O)C[C@@H](c2nc(-c3ccc4ccc(-c5ccccc5)nc4c3)c3c(N)nccn32)C1 [Linsitinib] (partner 1 µM)", 0.48],
  ["CC(=O)O[C@@]12CO[C@@H]1C[C@H](O)[C@@]1(C)C(=O)[C@H](O)C3=C(C)[C@@H](OC(=O)[C@H](O)[C@@H](NC(=O)OC(C)(C)C)c4ccccc4)C[C@@](O)([C@@H](OC(=O)c4ccccc4)[C@H]21)C3(C)C [Docetaxel] + CCNC(=O)c1noc(-c2cc(C(C)C)c(O)cc2O)c1-c1ccc(CN2CCOCC2)cc1 [Luminespib] (partner 0.01 µM)", 0.271],
  ["CC(=O)O[C@@]12CO[C@@H]1C[C@H](O)[C@@]1(C)C(=O)[C@H](O)C3=C(C)[C@@H](OC(=O)[C@H](O)[C@@H](NC(=O)OC(C)(C)C)c4ccccc4)C[C@@](O)([C@@H](OC(=O)c4ccccc4)[C@H]21)C3(C)C [Docetaxel] + CS(=O)(=O)CCNCc1ccc(-c2ccc3ncnc(Nc4ccc(OCc5cccc(F)c5)c(Cl)c4)c3c2)o1 [Lapatinib] (partner 2 µM)", 0.495],
  ["CC(=O)O[C@@]12CO[C@@H]1C[C@H](O)[C@@]1(C)C(=O)[C@H](O)C3=C(C)[C@@H](OC(=O)[C@H](O)[C@@H](NC(=O)OC(C)(C)C)c4ccccc4)C[C@@](O)([C@@H](OC(=O)c4ccccc4)[C@H]21)C3(C)C [Docetaxel] + CC1(C)CCC(c2ccc(Cl)cc2)=C(CN2CCN(c3ccc(C(=O)NS(=O)(=O)c4ccc(N[C@H](CCN5CCOCC5)CSc5ccccc5)c(S(=O)(=O)C(F)(F)F)c4)cc3)CC2)C1 [Navitoclax] (partner 0.5 µM)", 0.401],
  ["CC(=O)O[C@@]12CO[C@@H]1C[C@H](O)[C@@]1(C)C(=O)[C@H](O)C3=C(C)[C@@H](OC(=O)[C@H](O)[C@@H](NC(=O)OC(C)(C)C)c4ccccc4)C[C@@](O)([C@@H](OC(=O)c4ccccc4)[C@H]21)C3(C)C [Docetaxel] + Cc1cc(Nc2cc(N3CCN(C)CC3)nc(Sc3ccc(NC(=O)C4CC4)cc3)n2)n[nH]1 [Tozasertib] (partner 0.1 µM)", 0.46]
]}
